Target: FPR-GFP (R^F) with Gαi3β1H6γ2 on DCNi beads (Homo sapiens)
Construct: β1H6γ2: Sf9 insect cells
Sequence (P21462 whole entry): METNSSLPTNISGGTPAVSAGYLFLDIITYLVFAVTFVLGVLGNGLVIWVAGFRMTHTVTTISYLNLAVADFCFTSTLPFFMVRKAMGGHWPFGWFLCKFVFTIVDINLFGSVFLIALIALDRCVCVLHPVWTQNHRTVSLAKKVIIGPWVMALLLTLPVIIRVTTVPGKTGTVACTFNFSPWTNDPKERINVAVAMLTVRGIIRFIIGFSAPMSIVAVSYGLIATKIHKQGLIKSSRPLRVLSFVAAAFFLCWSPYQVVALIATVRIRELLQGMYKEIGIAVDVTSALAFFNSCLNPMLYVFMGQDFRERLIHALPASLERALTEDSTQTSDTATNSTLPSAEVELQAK
Sequence (P08754 2-354 partner limits assumed): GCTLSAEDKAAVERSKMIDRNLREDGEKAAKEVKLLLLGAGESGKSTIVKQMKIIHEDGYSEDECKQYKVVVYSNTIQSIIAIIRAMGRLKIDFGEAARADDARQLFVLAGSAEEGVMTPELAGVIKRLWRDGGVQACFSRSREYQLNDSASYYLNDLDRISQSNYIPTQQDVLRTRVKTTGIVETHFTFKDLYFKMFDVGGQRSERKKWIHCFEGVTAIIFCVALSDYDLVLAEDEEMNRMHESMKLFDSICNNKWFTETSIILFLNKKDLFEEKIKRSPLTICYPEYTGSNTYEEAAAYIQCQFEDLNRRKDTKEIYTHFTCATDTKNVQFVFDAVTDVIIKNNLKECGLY
Sequence (P62873 2-340 partner limits assumed): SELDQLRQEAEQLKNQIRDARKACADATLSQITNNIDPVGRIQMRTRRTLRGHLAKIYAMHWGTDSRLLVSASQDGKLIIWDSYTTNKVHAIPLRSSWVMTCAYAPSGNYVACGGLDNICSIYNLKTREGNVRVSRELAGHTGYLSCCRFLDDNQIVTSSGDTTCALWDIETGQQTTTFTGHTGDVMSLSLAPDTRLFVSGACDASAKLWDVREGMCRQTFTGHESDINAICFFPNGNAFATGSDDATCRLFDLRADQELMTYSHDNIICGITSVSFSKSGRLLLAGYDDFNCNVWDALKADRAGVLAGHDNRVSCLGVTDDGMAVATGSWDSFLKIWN
Sequence (P59768 2-68 partner limits assumed): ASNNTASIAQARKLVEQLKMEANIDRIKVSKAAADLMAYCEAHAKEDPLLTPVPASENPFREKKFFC
Experiment: Standard LRG assembly assay with FPR-GFP on G protein beads, flow cytometry
Residues, ends and D or L forms follow the SMILES beside them. *: point of attachment. For = O=C*
OUTCOME MEASURE: EC50 (nM)

>>> experimental_value("CSCC[C@H](NC=O)C(=O)N[C@@H](CC(C)C)C(=O)N[C@@H](Cc1ccccc1)C(=O)N[C@@H](Cc1ccccc1)C(=O)O [fMLFF] (For-MLFF-OH)")
27

The reported numbers originate from patent US7232659B1.
